Answer each item with its documented EC50.
# measuredOn: hMC-5R (Homo sapiens, UniProt P33032)
# Sequence (P33032 whole entry): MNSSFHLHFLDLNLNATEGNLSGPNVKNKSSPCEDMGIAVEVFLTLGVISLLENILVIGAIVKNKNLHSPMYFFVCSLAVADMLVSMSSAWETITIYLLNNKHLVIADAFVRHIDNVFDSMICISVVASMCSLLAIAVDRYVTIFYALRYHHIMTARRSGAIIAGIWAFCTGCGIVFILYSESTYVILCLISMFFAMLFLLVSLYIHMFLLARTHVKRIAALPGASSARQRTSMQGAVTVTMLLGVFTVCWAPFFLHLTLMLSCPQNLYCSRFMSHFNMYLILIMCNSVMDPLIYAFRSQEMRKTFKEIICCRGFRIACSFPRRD
# assayInfo: cAMP assay in CHO cells expressing a human melanocortin receptor
# appliedConditions: CHO cells, 45 minutes at room temperature
Starred links: 1 amine or outer side, 2 acyl side, 3 side chain; linkers in the order of their positions; H or OH if unused. Positions of bridges follow the written chain, without caps; N, C: chain ends. Non-standard residues stand in square brackets, D forms with d. Residues, ends and D or L forms follow the SMILES beside them. ξ: configuration not given here. dPhe(4-Cl) = N[C@H](Cc1ccc(Cl)cc1)C(=O)O; Suc = O=C(CCC(=O)[*:2])[*:1]; ξE = NC(CCC(=O)O)C(=O)O; ξDab = NCCC(N)C(=O)O; ξK = NCCCCC(N)C(=O)O; Ava = NCCCCC(=O)O
Use nM as the unit, but write only the number.

IN: Quickly give me recorded EC50 for N=C(N)NCCC[C@@H]1NC(=O)[C@@H](Cc2ccccc2)NC(=O)[C@H](Cc2c[nH]cn2)NC(=O)CCCCNC(=O)CCC(C(N)=O)NC(=O)[C@H](Cc2c[nH]c3ccccc23)NC1=O (stereo partly drawn) [Example 6] ([Ava]H[dF]RW[ξE]-NH2; lactam N-6)
OUT: 1900

IN: Report EC50, nothing else, for this molecule: N=C(N)NCCC[C@@H]1NC(=O)[C@@H](Cc2ccccc2)NC(=O)[C@H](Cc2c[nH]cn2)NC(=O)CCC(=O)NCCCCC(C(N)=O)NC(=O)[C@H](Cc2c[nH]c3ccccc23)NC1=O (stereo partly drawn) [Example 1] (H[dF]RW[ξK]-NH2; linker N-5 via Suc)
OUT: 1180

IN: Return value of EC50 for input N=C(N)NCCC[C@@H]1NC(=O)[C@@H](Cc2ccccc2)NC(=O)[C@H](Cc2c[nH]cn2)NC(=O)CCC(=O)NCCC(C(N)=O)NC(=O)[C@H](Cc2c[nH]c3ccccc23)NC1=O (stereo partly drawn) [Example 2] (H[dF]RW[ξDab]-NH2; linker N-5 via Suc) , no commentary.
OUT: 2200

IN: State, in one line, measured EC50 of N=C(N)NCCC[C@@H]1NC(=O)[C@@H](Cc2ccc(Cl)cc2)NC(=O)[C@H](Cc2c[nH]cn2)NC(=O)CCC(=O)NCCCCC(C(N)=O)NC(=O)[C@H](Cc2c[nH]c3ccccc23)NC1=O (stereo partly drawn) [Example 4] (H[dPhe(4-Cl)]RW[ξK]-NH2; linker N-5 via Suc)
OUT: 170
